Biological target: Melanocyte-stimulating hormone receptor (Homo sapiens)
Sequence (Q01726 whole entry): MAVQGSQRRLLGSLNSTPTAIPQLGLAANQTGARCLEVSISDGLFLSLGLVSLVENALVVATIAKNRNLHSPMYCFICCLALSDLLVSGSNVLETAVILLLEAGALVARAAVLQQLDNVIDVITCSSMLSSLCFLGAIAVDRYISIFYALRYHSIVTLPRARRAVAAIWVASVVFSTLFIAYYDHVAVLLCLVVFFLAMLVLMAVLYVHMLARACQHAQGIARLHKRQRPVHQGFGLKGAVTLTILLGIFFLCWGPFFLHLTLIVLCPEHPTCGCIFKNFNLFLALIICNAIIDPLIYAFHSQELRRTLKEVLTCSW
Test: effective concentration of peptide at 50% maximal cAMP accumulation on Melanocortin 1 receptor
observation-type: pEC50
The meaning of pEC50 here: minus log10 of the concentration in molar units.

Requested field: pEC50. Item: `CC(=O)N[C@@H](Cc1cnc[nH]1)C(=O)N[C@H](Cc1ccccc1)C(=O)N[C@@H](CCCNC(=N)N)C(=O)N[C@@H](Cc1c[nH]c2ccccc12)C(N)=O`
6.64

Requested field: pEC50. Item: `CC(=O)N[C@@H](Cc1c[nH]cn1)C(=O)N[C@@H](Cc1ccccc1)C(=O)N[C@@H](CCCN=C(N)N)C(=O)N[C@H](Cc1c[nH]c2ccccc12)C(N)=O`
5.85
